Give measured t½ for each item. Keep answers brief.
Tested On: T1, rat IL-25 expressed with a C-terminal myc-myc-hexahistidine tag (rat)
T1 construct: also called Rat IL-25-MMH
T1 chain: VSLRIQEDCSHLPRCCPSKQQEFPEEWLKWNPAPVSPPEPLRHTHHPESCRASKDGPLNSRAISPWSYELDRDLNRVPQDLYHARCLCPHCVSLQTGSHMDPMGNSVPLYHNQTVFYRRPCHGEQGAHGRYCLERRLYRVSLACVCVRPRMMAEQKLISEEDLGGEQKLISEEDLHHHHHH
Assay Name: SPR Biacore, antibody captured, 37C
One number for each entry, in h.

[[record]]
binder = "H4H10876P (antibody, human IgG4, V domains shown, H4H prefix = human IgG4 Fc) VH: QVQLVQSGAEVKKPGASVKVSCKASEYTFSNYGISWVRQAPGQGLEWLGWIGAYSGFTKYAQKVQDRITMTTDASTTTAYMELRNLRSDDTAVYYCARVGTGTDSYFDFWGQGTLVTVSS VL: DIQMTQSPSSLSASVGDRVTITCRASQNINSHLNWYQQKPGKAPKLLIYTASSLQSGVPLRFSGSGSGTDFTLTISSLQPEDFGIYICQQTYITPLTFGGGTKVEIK"
observation_type = "t½"
result = 1.8


# ---- query binder ----
Task: Provide only the value of recorded t½ for H4H10905P (antibody, human IgG4, V domains shown, H4H prefix = human IgG4 Fc) VH: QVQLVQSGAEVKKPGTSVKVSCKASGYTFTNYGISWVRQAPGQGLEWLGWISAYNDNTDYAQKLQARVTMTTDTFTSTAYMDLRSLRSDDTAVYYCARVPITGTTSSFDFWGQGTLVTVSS VL: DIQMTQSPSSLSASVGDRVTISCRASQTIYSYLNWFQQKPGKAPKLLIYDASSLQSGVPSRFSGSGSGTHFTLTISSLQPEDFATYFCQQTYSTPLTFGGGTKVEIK
Result: 1.07
